Assay: fission yeast growth modulation, primary screen, strain 972, OD600, 24 h, no modulator (AID 1090);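 further: basal condition with compound alone and no growth modifier present; test concentration not given here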
Details: S. pombe 972 growth, higher = more signal, called active from +8 up or from −8 down
Consider the following molecules; for each one, report its z-score.
Numbers only.

Worked set:
Cc1ccc(S[C@]2(C(=O)O)CC(=O)N(Cc3ccccc3Cl)[C@@H]2c2ccc(CO)cc2I)cc1; -1.71
O=C1OCC=C[C@H]2OC34C=CCN(Cc5ccccc5)C(=O)[C@H]3N(CCCCCCO)C(=O)[C@@H]4[C@@H]12 (stereo partly drawn); 0.0262
CC(C)C(=C=CC[C@H](O)c1cccc(OCCO)c1)C[C@H](O)c1cc(Cl)cc(Cl)c1O; -1.06
OCCCC1=CC(c2ccc(CN3CCCC3)cc2)N(Cc2sc3ccccc3c2Cl)CC1 (stereo not drawn); -14.3
COc1cc2c(cc1OC)CN(C(=O)[C@@H]1[C@H]3C(=O)O[C@H](c4ccccc4)[C@H](c4ccccc4)N3[C@H](c3ccc(OCCO)cc3)[C@@]13C(=O)Nc1ccc(C#CC4(O)CCCCCC4)cc13)CC2; 0.888

For each of the molecules below, state z-score.
1. COc1ccc([Si](C)(C)[C@@H]2[C@@H](CCO)O[C@]3(C(=O)N(Cc4ccc(N5CCCCC5=O)cc4)c4ccccc43)[C@H]2C)cc1
2. COC(=O)c1ccc([C@H](NC(=O)c2ccco2)[C@]2(C)C[C@H]2C2CCCCC2)cc1
3. COc1ccc([Si](C)(C)[C@@H]2[C@@H](CC(=O)N(CCO)Cc3ccccc3)O[C@]3(C(=O)N(Cc4cccc(N5CCOC5=O)c4)c4ccccc43)[C@H]2C)cc1
4. Cc1ccc(S[C@]2(C(=O)NCC(F)(F)F)CC(=O)N(C3CCCCC3)[C@@H]2c2ccc(CO)cc2I)cc1
5. COC(=O)c1c2oc(c1C(=O)OC)C(=O)N(C)Cc1cn(nn1)C[C@H](Cc1ccccc1)NC(=O)N[C@H](CO)CC2
6. O=C1NC(=O)C2C1C=CC(C(O)c1ccco1)N2Nc1ccccn1 (stereo not drawn)
7. COC(=O)[C@H](Cc1ccccc1)N1CC(/C=C/C2CC2)=C[C@H]1[C@H](O)Cc1ccccc1

1. 0.0767
2. 0.17
3. -0.21
4. -0.692
5. 0.914
6. 0.652
7. -3.67

response.value for `O=C1O[C@@H](c2ccccc2)[C@@H](c2ccccc2)N2[C@@H](c3ccccc3OCCO)[C@]3(C(=O)Nc4ccc(C#CCCO)cc43)[C@@H](C(=O)N3CCCCCCC3)[C@H]12` (field: z-score) = -4.61
